# experiment: Aqueous solubility at different pH values
# Assay type: physicochemical
# runConditions: aqueous solution, aqueous buffer; pH 3, actual media pH 3.03
propertyLabel: solubility (µg/mL)
Unit µg/mL implied. Number only.

According to the records, this compound "COc1ccc(F)cc1C(=O)NCc1ccc(-c2nn([C@@H](C)C(F)(F)F)c(N)c2C(N)=O)cc1" displays solubility of 14

====

# experiment: Aqueous solubility at different pH values
# Format: physicochemical
# runConditions: simulated gastric fluid; (0.1 N HCl) pH 1, actual media pH 1.09
propertyLabel: solubility
Answer as a quantity: numeral, then unit.

According to the records, this compound "COc1ccc(F)cc1C(=O)NCc1ccc(-c2nn([C@@H](C)C(F)(F)F)c(N)c2C(N)=O)cc1" displays solubility of 17 µg/mL

====

# experiment: Kinetic solubility in FaSSGF, FaSSIF and FeSSIF media
# Format: physicochemical
# runConditions: FeSSIF (Fed State Simulated Intestinal Fluid), kinetic from dmso stock; pH 6.5 FeSSIF, 4 hours
propertyLabel: solubility kinetic at 4 h (µg/mL)
Unit µg/mL implied. Number only.

According to the records, this molecule COc1ccc(F)cc1C(=O)NCc1ccc(-c2nn([C@@H](C)C(F)(F)F)c(N)c2C(N)=O)cc1 [compound of Formula I] displays solubility kinetic at 4 h of 44

====

# targetEntity: full-length wild type (WT) human BTK (Homo sapiens, UniProt Q06187)
# Construct: against full-length wild type (WT) and mutant human BTK enzymes
# Sequence (Q06187 whole entry): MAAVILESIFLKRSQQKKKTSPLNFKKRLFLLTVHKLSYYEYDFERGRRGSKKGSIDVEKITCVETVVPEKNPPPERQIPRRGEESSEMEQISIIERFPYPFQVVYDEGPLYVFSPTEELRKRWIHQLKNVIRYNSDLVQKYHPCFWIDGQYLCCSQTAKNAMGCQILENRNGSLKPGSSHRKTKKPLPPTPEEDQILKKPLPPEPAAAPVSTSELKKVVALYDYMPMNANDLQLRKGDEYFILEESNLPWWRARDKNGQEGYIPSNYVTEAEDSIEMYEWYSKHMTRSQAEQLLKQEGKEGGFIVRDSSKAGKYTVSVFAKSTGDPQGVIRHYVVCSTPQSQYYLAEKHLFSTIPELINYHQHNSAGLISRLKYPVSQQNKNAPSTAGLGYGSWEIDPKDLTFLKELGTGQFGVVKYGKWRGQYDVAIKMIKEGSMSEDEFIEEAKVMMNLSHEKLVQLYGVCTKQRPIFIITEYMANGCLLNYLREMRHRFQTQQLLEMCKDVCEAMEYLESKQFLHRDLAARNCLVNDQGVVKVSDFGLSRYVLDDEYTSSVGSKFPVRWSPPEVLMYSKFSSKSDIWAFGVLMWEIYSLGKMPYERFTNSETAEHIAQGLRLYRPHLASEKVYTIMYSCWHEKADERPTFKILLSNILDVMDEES
# experiment: BTK activity assay, [33P]-ATP incorporation into poly-EY
# Format: biochemical
# runConditions: ATP at Km concentration; read-out: IC50 value
propertyLabel: IC50 (nM)
Unit nM implied. Number only.

According to the records, this compound COc1ccc(F)cc1C(=O)NCc1ccc(-c2nn([C@@H](C)C(F)(F)F)c(N)c2C(N)=O)cc1 [compound of Formula I] displays IC50 of 3.15

====

# targetEntity: UniProt P41240
# Sequence (P41240 whole entry): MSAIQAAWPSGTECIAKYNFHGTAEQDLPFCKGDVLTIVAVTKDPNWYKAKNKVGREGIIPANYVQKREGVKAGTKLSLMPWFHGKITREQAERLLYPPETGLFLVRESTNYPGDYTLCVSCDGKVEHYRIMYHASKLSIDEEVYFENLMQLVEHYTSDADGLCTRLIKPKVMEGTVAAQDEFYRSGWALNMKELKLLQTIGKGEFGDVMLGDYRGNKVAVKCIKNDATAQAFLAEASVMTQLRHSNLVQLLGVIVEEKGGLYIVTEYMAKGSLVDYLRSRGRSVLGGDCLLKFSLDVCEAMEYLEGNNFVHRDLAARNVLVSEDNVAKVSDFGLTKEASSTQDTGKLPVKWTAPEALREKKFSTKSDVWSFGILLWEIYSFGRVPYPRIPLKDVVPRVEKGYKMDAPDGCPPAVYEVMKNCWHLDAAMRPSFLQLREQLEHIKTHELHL
propertyLabel: IC50 (nM)
Unit nM implied. Number only.

Lab note: compound "COc1ccc(F)cc1C(=O)NCc1ccc(-c2nn([C@@H](C)C(F)(F)F)c(N)c2C(N)=O)cc1" tested on UniProt P41240; recorded IC50 was 552
